tested on: Atrial natriuretic peptide receptor 1 (Oryctolagus cuniculus); experiment: Binding affinity towards the low-affinity site atrionatriuretic peptide receptor 1 of rabbit adrenal membrane
observed_property: log10 of KL (log10 of the value in nM)

compound	log10 of KL
CC[C@H](C)[C@@H]1NC(=O)[C@@H](CCCN=C(N)N)NC(=O)CNC(=O)CNC(=O)[C@@H](Cc2ccccc2)NC(=O)C(C)NC(=O)[C@H](NC(=O)[C@@H](N)CCCN=C(N)N)CSSC[C@H](C(=O)N[C@H](Cc2ccccc2)C(=O)N[C@H](CCCN=C(N)N)C(=O)O)NC(=O)[C@@H]([C@@H](C)CC)NC(=O)[C@H](CCCN=C(N)N)NC(=O)[C@@H](CC(=O)O)NC1=O (stereo in doubt)	2.38
CC[C@H](C)[C@@H]1NC(=O)[C@@H](CCCN=C(N)N)NC(=O)CNC(=O)CNC(=O)[C@@H](C2CCCCC2)NC(=O)[C@H](NC(=O)[C@H](N)CCCN=C(N)N)CSSC[C@H](C(=O)O)NC(=O)[C@@H](CCCN=C(N)N)NC(=O)[C@H](Cc2ccccc2)NC(=O)[C@@H]([C@@H](C)CC)NC(=O)[C@H](CCCN=C(N)N)NC(=O)[C@@H](CC(=O)O)NC1=O	2.66
CC[C@H](C)[C@@H]1NC(=O)[C@@H](CCCN=C(N)N)NC(=O)CNC(=O)CNC(=O)[C@@H](Cc2ccccc2)NC(=O)CCNC(=O)[C@H](NC(=O)[C@H](CO)NC(=O)[C@@H](N)CO)CSSC[C@H](C(=O)N[C@H](Cc2ccccc2)C(=O)N[C@H](CCCN=C(N)N)C(=O)O)NC(=O)[C@@H]([C@@H](C)CC)NC(=O)[C@H](CCCN=C(N)N)NC(=O)[C@@H](CC(=O)O)NC1=O	3.81
CC[C@H](C)[C@@H]1NC(=O)[C@@H](CCCN=C(N)N)NC(=O)CNC(=O)CNC(=O)[C@@H](Cc2ccccc2)NC(=O)[C@H](NC(=O)[C@H](CO)NC(=O)[C@@H](N)CO)CSSC[C@H](C(=O)N[C@H](Cc2ccccc2)C(=O)N[C@H](CCCN=C(N)N)C(=O)O)NC(=O)[C@@H]([C@@H](C)CC)NC(=O)[C@H](CCCN=C(N)N)NC(=O)[C@@H](CC(=O)O)NC1=O	3.64
CC[C@H](C)[C@@H]1NC(=O)[C@@H](CCCN=C(N)N)NC(=O)CNC(=O)CNC(=O)[C@@H](Cc2ccccc2)NC(=O)C(C(C)C)NC(=O)[C@H](NC(=O)[C@H](CO)NC(=O)[C@@H](N)CO)CSSC[C@H](C(=O)N[C@H](Cc2ccccc2)C(=O)N[C@H](CCCN=C(N)N)C(=O)O)NC(=O)[C@@H]([C@@H](C)CC)NC(=O)[C@H](CCCN=C(N)N)NC(=O)[C@@H](CC(=O)O)NC1=O (stereo in doubt)	2.11
CC[C@H](C)[C@@H]1NC(=O)[C@@H](CCCN=C(N)N)NC(=O)CNC(=O)CNC(=O)[C@@H](Cc2ccccc2)NC(=O)C(C)NC(=O)[C@H](N)CSSC[C@H](C(=O)N[C@H](Cc2ccccc2)C(=O)N[C@H](CCCN=C(N)N)C(=O)O)NC(=O)[C@@H]([C@@H](C)CC)NC(=O)[C@H](CCCN=C(N)N)NC(=O)[C@@H](CC(=O)O)NC1=O (stereo in doubt)	3.43
